- Test system: Kasumi-1
- test_description: CellTox Green cytotoxicity fluorescence relative to DMSO vehicle (fold of vehicle RFU); higher = more cell death (loss of membrane integrity), active = 2 or more
- experimental_context: 0.01 µM; 48 h
Listed here: items and their measured CellTox Green cytotoxicity fluorescence.
Keep the answer to the number alone.

Example cases with answers are listed next.
{"columns": ["compound", "CellTox Green cytotoxicity fluorescence"],
 "data": [
  ["N#CC(=Cc1ccc(-c2cc(Cl)ccc2Cl)o1)C(=O)Nc1cccc2ncccc12", 0.958],
  ["C/C(=N\\NC(=O)c1cccc(S(=O)(=O)N2CCOCC2)c1)c1cc(Cl)ccc1O", 0.949],
  ["C=CC(=O)N1CCC(Oc2cc3c(Nc4ccc(Cl)c(Cl)c4F)ncnc3cc2OC)CC1", 0.982],
  ["COC(=O)[C@H](CCSC)NC(=O)c1ccc(NC[C@@H](N)CS)cc1-c1ccccc1", 0.922],
  ["COc1cc(C(=O)O)ccc1NC(=O)[C@@H]1N[C@@H](CC(C)(C)C)[C@](C#N)(c2ccc(Cl)cc2F)[C@H]1c1cccc(Cl)c1F", 0.971]
]}

I have this compound here, `Nc1ccccc1NC(=O)c1cnccn1` , and I need its recorded CellTox Green cytotoxicity fluorescence. 0.96

Endpoint output: CellTox Green cytotoxicity fluorescence of Cc1nc(Nc2ncc(C(=O)Nc3c(C)cccc3Cl)s2)cc(N2CCN(CCO)CC2)n1 [Dasatinib Monohydrate] . Value? 1.09

Any idea what CellTox Green cytotoxicity fluorescence was measured for `CC1(C)CCC(c2ccc(Cl)cc2)=C(CN2CCN(c3ccc(C(=O)NS(=O)(=O)c4ccc(N[C@H](CCN5CCOCC5)CSc5ccccc5)c(S(=O)(=O)C(F)(F)F)c4)cc3)CC2)C1` ? 1

Sample `CNC(=O)c1ccccc1Nc1cc(Nc2ccc(N3CCOCC3)cc2OC)ncc1C(F)(F)F` — what was its CellTox Green cytotoxicity fluorescence? 0.952

Any idea what CellTox Green cytotoxicity fluorescence was measured for `COc1ccc(C2=N[C@@H](c3ccc(Cl)cc3)[C@@H](c3ccc(Cl)cc3)N2C(=O)N2CCNC(=O)C2)c(OC(C)C)c1` ? 1.01

Fill in: CellTox Green cytotoxicity fluorescence of `NS(=O)(=O)C#Cc1ccccc1` is ___ 0.986

So what does the record say about CellTox Green cytotoxicity fluorescence for `CN[C@@H](C)C(=O)N[C@H](C(=O)N1CCC[C@H]1c1nc(C(=O)c2ccc(F)cc2)cs1)C1CCCCC1` ? 0.955

Can you look up the measured CellTox Green cytotoxicity fluorescence of `Nc1nc(F)nc2c1ncn2[C@@H]1O[C@H](CO)[C@@H](O)[C@@H]1O` for me? 0.991

Look up CellTox Green cytotoxicity fluorescence for this compound: `CN(C)CCCCC(=O)Nc1ccc(NC(=S)NC(=O)c2ccc(C(C)(C)C)cc2)cc1` 0.965

If you can, please state the reported CellTox Green cytotoxicity fluorescence value of `CC(=O)N1c2ccc(-c3ccc(C(=O)O)cc3)cc2[C@H](Nc2ccc(Cl)cc2)C[C@@H]1C` . 0.98

So what's the measured CellTox Green cytotoxicity fluorescence for this one? `CC(C)c1ccccc1Cc1cc(C(=O)Nc2ccc(S(=O)(=O)c3ccccc3C(C)(C)C)cc2)c(O)c(O)c1O` 0.911

What CellTox Green cytotoxicity fluorescence value was documented for this compound, `CC1(C)CC[C@]2(NC(=O)C(C)(F)F)CC[C@]3(C)[C@H](C(=O)C=C4[C@@]5(C)C=C(C#N)C(=O)C(C)(C)[C@@H]5CC[C@]43C)[C@@H]2C1` ? 0.95

----------
- System: Kasumi-1
- test_description: CellTox Green cytotoxicity fluorescence relative to DMSO vehicle (fold of vehicle RFU); higher = more cell death (loss of membrane integrity), active = 2 or more
- experimental_context: 0.1 µM; 24 h
Where a name gives a salt, the structure may show the parent alone.
readout_label: CellTox Green cytotoxicity fluorescence
Simply state the number, no unit and no words.

Check out these entries, answers already filled in.
{"columns": ["compound", "numeric_readout"],
 "data": [
  ["O=C(O)CSc1cc(NS(=O)(=O)c2ccc(Br)cc2)c2ccccc2c1O", 0.985],
  ["COc1c/c(=C2\\C=c3ccccc3=N2)[nH]/c1=C\\c1[nH]c(C)cc1C [Obatoclax Mesylate]", 0.977],
  ["CC[C@@]1(O)C(=O)OCc2c1cc1n(c2=O)Cc2cc3cc(O)ccc3nc2-1 [(S)-10-Hydroxycamptothecin]", 0.972],
  ["FC(F)(F)c1ccc(CNc2ccc(Cc3c[nH]c4ncc(Cl)cc34)cn2)cn1", 1]
]}

Given `C=CC(=O)N1CC(=Cc2ccc([N+](=O)[O-])cc2)C(=O)C(=Cc2ccc([N+](=O)[O-])cc2)C1` , state its recorded CellTox Green cytotoxicity fluorescence. 1.01

Request the reported CellTox Green cytotoxicity fluorescence associated with `Cc1cccc(CC(=O)N2CCc3c2ccc(-c2cn(C)c4ncnc(N)c24)c3F)n1` 1.01

Data request, read-out CellTox Green cytotoxicity fluorescence, for `CN1CCN(CCCNc2ncc(Cl)c(-c3cc4c(C(=O)NC5CC5)cccc4s3)n2)CC1` 0.958

----------
- System: CMK
- test_description: CellTox Green cytotoxicity fluorescence relative to DMSO vehicle (fold of vehicle RFU); higher = more cell death (loss of membrane integrity), active = 2 or more
- experimental_context: 0.01 µM; 72 h
Listed compounds paired with reported CellTox Green cytotoxicity fluorescence
Number, no unit, nothing else.

Answered examples (2):
{"columns": ["compound", "readout_label", "numeric_readout"],
 "data": [
  ["CC(C)(C)C[C@@H]1N[C@@H](C(=O)N[C@H]2CC[C@H](O)CC2)[C@H](c2cccc(Cl)c2F)[C@]12C(=O)Nc1cc(Cl)ccc12", "CellTox Green cytotoxicity fluorescence", 1.05],
  ["FC(F)(F)c1ccc(CNc2ccc(Cc3c[nH]c4ncc(Cl)cc34)cn2)cn1", "CellTox Green cytotoxicity fluorescence", 0.979]
]}

What does the data say about its CellTox Green cytotoxicity fluorescence? Entry: COCC[n+]1c2c(n(Cc3cnccn3)c1C)C(=O)c1ccccc1C2=O [Sepantronium Bromide] 0.922

Requested read-out: CellTox Green cytotoxicity fluorescence. Entry: `CC(C)[C@H](CO)Nc1nc(Nc2cccc(Cl)c2)c2ncn(C(C)C)c2n1` 1

Returns the measured CellTox Green cytotoxicity fluorescence for the input compound. Input: `NS(=O)(=O)C#Cc1ccccc1` 0.939

----------
- Test system: MV4-11
- test_description: CellTox Green cytotoxicity fluorescence relative to DMSO vehicle (fold of vehicle RFU); higher = more cell death (loss of membrane integrity), active = 2 or more
- experimental_context: 0.01 µM; 72 h
readout_label: CellTox Green cytotoxicity fluorescence
Please give the numeric answer without any surrounding text.

Here's what some known entries look like.
{"columns": ["compound", "CellTox Green cytotoxicity fluorescence"],
 "data": [
  ["Nc1nc(F)nc2c1ncn2[C@@H]1O[C@H](CO)[C@@H](O)[C@@H]1O", 0.976],
  ["N#Cc1ccc(-c2c(-c3ncn[nH]3)sc(N3CCOCC3)c2C#N)c(F)c1", 0.969],
  ["CNC(=O)c1ccccc1Nc1cc(Nc2ccc(N3CCOCC3)cc2OC)ncc1C(F)(F)F", 0.949],
  ["CC(C)(C)C[C@@H]1N[C@@H](C(=O)N[C@H]2CC[C@H](O)CC2)[C@H](c2cccc(Cl)c2F)[C@]12C(=O)Nc1cc(Cl)ccc12", 1.05],
  ["CCOC(=O)c1[nH]c2cc(Cl)ccc2c1C(C(=O)NC(C)(C)C)N(C=O)Cc1ccc(Cl)cc1 (stereo unspecified)", 0.957]
]}

Here is another compound to look at.
Missing value: CellTox Green cytotoxicity fluorescence, MV4-11, entry `FC(F)(F)c1ccc(CNc2ccc(Cc3c[nH]c4ncc(Cl)cc34)cn2)cn1` . Fill in? 1.01

----------
- System: CMK
- test_description: CellTox Green cytotoxicity fluorescence relative to DMSO vehicle (fold of vehicle RFU); higher = more cell death (loss of membrane integrity), active = 2 or more
- experimental_context: 0.01 µM; 24 h
Each entry below lists one item and its recorded CellTox Green cytotoxicity fluorescence value.
// print number alone

{"columns": ["compound", "measurement_target", "readout_label", "numeric_readout"],
 "data": [
  ["Cc1cccc(CC(=O)N2CCc3c2ccc(-c2cn(C)c4ncnc(N)c24)c3F)n1", "CMK", "CellTox Green cytotoxicity fluorescence", 0.981],
  ["C=CC(=O)N1CCN(C(=O)CNc2cc(I)c(Cl)cc2O)CC1 [K-Ras(G12C) inhibitor 12]", "CMK", "CellTox Green cytotoxicity fluorescence", 1.01],
  ["CCCCCCCCCCCC1=C(O)C(=O)C=C(O)C1=O", "CMK", "CellTox Green cytotoxicity fluorescence", 1.03],
  ["CN1CCN(Cc2ccc(Nc3ncc(Cl)c(Nc4ccccc4S(=O)(=O)N(C)C)n3)cc2)CC1", "CMK", "CellTox Green cytotoxicity fluorescence", 0.958],
  ["COc1cc(C(=O)O)ccc1NC(=O)[C@@H]1N[C@@H](CC(C)(C)C)[C@](C#N)(c2ccc(Cl)cc2F)[C@H]1c1cccc(Cl)c1F", "CMK", "CellTox Green cytotoxicity fluorescence", 0.938],
  ["CCS(=O)(=O)N1CCN(c2ccc(Nc3ncc(C(N)=O)c(NC4CC4)n3)cc2)CC1", "CMK", "CellTox Green cytotoxicity fluorescence", 0.961],
  ["O=C(NS(=O)(=O)c1ccc(Br)s1)c1ccc(Cl)cc1Cl", "CMK", "CellTox Green cytotoxicity fluorescence", 0.98]
]}

Now consider a different compound.
Form: Entry = O=C(COc1ccc(Cl)cc1)NC1CCC(NC(=O)COc2ccc(Cl)cc2)CC1 (stereo not drawn) | System = CMK | CellTox Green cytotoxicity fluorescence = ____ 0.999
